- testedOn: SIRT1 (Homo sapiens)
- Sequence (Q96EB6 whole entry): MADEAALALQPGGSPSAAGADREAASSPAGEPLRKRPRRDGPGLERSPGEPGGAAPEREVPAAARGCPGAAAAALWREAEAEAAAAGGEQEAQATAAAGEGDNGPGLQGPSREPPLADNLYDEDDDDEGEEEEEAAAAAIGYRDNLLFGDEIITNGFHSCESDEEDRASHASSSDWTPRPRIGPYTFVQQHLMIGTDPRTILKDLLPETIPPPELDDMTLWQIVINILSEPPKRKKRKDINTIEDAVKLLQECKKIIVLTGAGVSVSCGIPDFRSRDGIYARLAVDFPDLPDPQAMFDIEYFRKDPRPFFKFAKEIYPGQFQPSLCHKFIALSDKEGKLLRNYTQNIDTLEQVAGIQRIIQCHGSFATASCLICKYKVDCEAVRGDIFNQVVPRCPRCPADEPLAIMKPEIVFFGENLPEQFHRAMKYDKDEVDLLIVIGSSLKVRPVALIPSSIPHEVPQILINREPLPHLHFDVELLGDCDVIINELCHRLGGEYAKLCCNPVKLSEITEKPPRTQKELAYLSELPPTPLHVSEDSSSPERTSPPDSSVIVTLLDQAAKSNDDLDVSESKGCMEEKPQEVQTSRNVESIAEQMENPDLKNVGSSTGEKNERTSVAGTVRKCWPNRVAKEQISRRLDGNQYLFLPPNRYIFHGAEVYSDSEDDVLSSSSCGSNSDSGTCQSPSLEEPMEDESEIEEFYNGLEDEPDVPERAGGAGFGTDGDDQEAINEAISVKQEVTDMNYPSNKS
- assayExplanation: Mass spectrometry based assay to identify modulators of SIRT1 activity (deacetylation of p53-based acetylated peptide substrate)
- Assay type: biochemical
Below, each entry is listed alongside its reported EC1.5 (concentration giving 1.5-fold activation).
readoutType: EC1.5 (concentration giving 1.5-fold activation)

>>> df
                                    molecule       measurement
 0  O=C(Nc1ccnc(N2CCC2)c1)N1CCOc2ncc(-c3cccc(C(F)(F)F)c3)nc21         < 1000 nM
 1  Cn1cc2ccc(NC(=O)N3CCCOc4ccc(-c5cccc(Cl)c5)nc43)cc2n1         < 1000 nM
 2  CC1CCN(C(=O)Nc2ccncc2F)c2nc(-c3cccc(C(F)(F)F)c3)ccc21 (stereo not shown)         < 1000 nM
 3  O=C(Nc1cncnc1)N1CCCOc2ccc(-c3cccc(Cl)c3)nc21  1000 to 25000 nM
 4  CN(C)c1nc(-c2cccc(F)c2)nc2c1OCCN2C(=O)Nc1ccncc1        > 25000 nM
 5  CC1(C)CCN(C(=O)Nc2cc(OCC(O)CO)ccn2)c2nc(-c3cccc(C(F)(F)F)c3)ccc21 (stereo not shown)         < 1000 nM
 6  O=C(Nc1ccncc1F)N1CCCC(F)(F)c2ccc(-c3cccc(Cl)c3)nc21        > 25000 nM
 7  O=C(Nc1ccncc1)N1CCCCc2ccc(-c3cccc(Cl)c3)nc21  1000 to 25000 nM
 8  Cc1cc(NC(=O)N2CCOc3c(N4CCCC4)nc(-c4cccc(F)c4)nc32)cc(C)n1  1000 to 25000 nM
 9  CC1(C)CCN(C(=O)Nc2cccc(OC[C@@H](O)CO)n2)c2nc(-c3cccc(C(F)(F)F)c3)ccc21         < 1000 nM
10  O=C(Nc1ccncc1F)N1CCCCc2ccc(-c3cccc(Cl)c3)nc21  1000 to 25000 nM
11  CC1CCN(C(=O)Nc2ccccn2)c2nc(-c3cccc(C(F)(F)F)c3)ccc21 (stereo not shown)         < 1000 nM
12  CCN1CCCN(C(=O)Nc2cccc(C)n2)c2nc(-c3cccc(Cl)c3)ccc21        > 25000 nM
13  CC1(C)CCN(C(=O)Nc2ccncc2)c2nc(-c3cccc(C(F)(F)F)c3)ccc21         < 1000 nM
14  O=C(Nc1cccc(N2CC3(CCO3)C2)n1)N1CCOc2ccc(-c3cccc(C(F)(F)F)c3)nc21         < 1000 nM
15  CCN1C(=O)CCN(C(=O)Nc2cccc(C)n2)c2nc(-c3cccc(Cl)c3)ccc21        > 25000 nM
